# target: CCR9 (Homo sapiens (Human))
# Sequence (P51686 whole entry): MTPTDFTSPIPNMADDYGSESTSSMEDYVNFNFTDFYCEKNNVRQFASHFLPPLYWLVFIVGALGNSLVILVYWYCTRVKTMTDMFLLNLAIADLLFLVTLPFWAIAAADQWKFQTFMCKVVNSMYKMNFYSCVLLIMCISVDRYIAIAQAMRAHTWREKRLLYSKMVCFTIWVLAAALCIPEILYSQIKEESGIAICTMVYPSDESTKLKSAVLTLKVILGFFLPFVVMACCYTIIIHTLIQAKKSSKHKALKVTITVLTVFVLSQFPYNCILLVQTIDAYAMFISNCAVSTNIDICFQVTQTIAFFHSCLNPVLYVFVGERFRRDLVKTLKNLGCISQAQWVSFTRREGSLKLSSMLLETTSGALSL
# assayProcedure: FLIPR calcium flux assay using MOLT4 cells, TECK stimulation
# Type: cell-based
# assayConditions: MOLT4 cells (human T-cell line)
pKi: −log10 of the molar value.
# pKi >= 7 gives 1, anything below gives 0

Consider the worked cases shown below.
CC(C)(C)c1ccc(S(=O)(=O)Nc2ccc(Cl)c3c2C(=O)N(Cc2ncccc2F)C3=O)cc1 1
Cc1ccc(NS(=O)(=O)c2ccc(C(F)(F)F)cc2)c2c1C(=O)N(Cc1cccnc1)C2=O 0
CC(C)(C)c1ccc(S(=O)(=O)Nc2ccc(Cl)c3c2C(=O)N(c2ccncn2)C3=O)cc1 1
O=C1c2c(Cl)ccc(NS(=O)(=O)c3ccc(C(F)(F)F)cc3)c2C(=O)N1c1cncnc1 0

Check this compound for pKi at or above 7: "Cc1ccc(CN2C(=O)c3c(Cl)ccc(NS(=O)(=O)c4ccc(C(C)(C)C)cc4)c3C2=O)nc1"
1

Repeat with "Cc1cc[n+]([O-])cc1N1C(=O)c2c(Cl)ccc(NS(=O)(=O)c3ccc(C(C)(C)C)cc3)c2C1=O"
1

Repeat with "COc1ccc[n+]([O-])c1N1C(=O)c2c(Cl)ccc(NS(=O)(=O)c3ccc(C(C)(C)C)cc3)c2C1=O"
1
